assay: NOD1 signaling inhibitors, primary screen, cell-based, luminescence, uHTS (AID 1578); details: NOD1-driven NF-kB luciferase reporter cells, at 4 µM;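 further: HEK-293T reporter cells stimulated with the NOD1 agonist gamma-tri-DAP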
Out of some 290,000 compounds screened, about 3,000 (1%) were called active. No stated cut-off is given here; in the data, active means inhibition mostly above about 36% (no sharp cut-off); inactive means mostly below about 34%. This is one part of a sample in which actives are shown more often than they occur.
The categories you may choose from are 1 (active), 0 (inactive)

Study these solved cases before continuing.
                                   compound  category
0  COc1ccc(CNC(=O)C2CCCN(S(=O)(=O)c3ccc(Br)s3)C2)cc1 (stereo unspecified)         0
1         CC(C)NC(=O)CN1C(=O)C(=O)c2ccccc21         0
2  O=S(=O)(O)c1cccc2c(N=Nc3ccc(O)c4ncccc34)cccc12         0
3  CCS(=O)(=O)c1ccc(OC)c(N=Nc2ccc(O)c3ncccc23)c1         0
4  CCN(CC)S(=O)(=O)c1cccc(N=Nc2sc(N)nc2C)c1         0

Asked: Please state the recorded outcome for this compound: `COc1cccc(N=Nc2ccc3ccccc3c2O)c1`
Given back: 0

Asked: And for CC(Sc1nc(N)c2c3c(sc2n1)CSC(C)(C)C3)C(=O)Nc1ccccc1 (stereo unspecified) ?
Given back: 1

Asked: And for `Cc1ccc(NC(=O)CSc2nc(N)c3c4c(sc3n2)CSC(C)(C)C4)cc1` ?
Given back: 0

Asked: And for `Cc1ccccc1NC(=O)CSc1nc(N)c2c3c(sc2n1)CSC(C)(C)C3` ?
Given back: 0

Asked: And for `Cc1cccc(N=Nc2ccc(O)c3ncccc23)c1` ?
Given back: 1

Asked: And for `O=Nc1ccc(O)c2ncccc12` ?
Given back: 0
